Attribute: Growth (% rel. to DMSO)
- Tested on: Antibiotic-resistant staphylococcal, enterococcal, enterobacterial or acinetobacter isolates
- ASSAY_PROCEDURE: Broth micro-dilution assay in clinical patient isolates, compound in combination with tetracyclines
- Format: cell-based
- EXPERIMENTAL_CONDITIONS: 4 μg/ml tetracyclines and 10 μg/ml compound; OD610 16 to 20 hours after inoculation, normalized to DMSO control (100%)
Supply the numeric figure in %, leaving out any unit text.

| COMPOUND | PROPERTY_NAME | MEASURED_NUMBER |
| --- | --- | --- |
| CC(C)CNC(=O)C1CCc2c(c(O)c3ccccc3c2O)C1 (stereo not shown) | Growth (% rel. to DMSO) | 25.77 |
| O=C(NCc1cc(F)cc(F)c1)C1CCc2c(O)ccc(O)c2C1 (stereo not shown) | Growth (% rel. to DMSO) | 8.15 |
| O=C(NCc1cc(O)ccc1O)c1cccc(F)c1 | Growth (% rel. to DMSO) | 60.43 |
| O=C(NCc1cc(O)ccc1O)c1cc(C(F)(F)F)ccc1C(F)(F)F | Growth (% rel. to DMSO) | 47.14 |
| O=C(NCc1cc(O)ccc1O)c1ccccc1F | Growth (% rel. to DMSO) | 56.57 |

Lab book: Growth (% rel. to DMSO) of O=C(NCc1ccc(F)cc1F)C1CCc2c(O)ccc(O)c2C1 (stereo not shown) noted as 33.52

Lab book: Growth (% rel. to DMSO) of CN(Cc1ccccc1)C(=O)C1CCc2c(O)ccc(O)c2C1 (stereo not shown) noted as 55.92

Lab book: Growth (% rel. to DMSO) of CC(C)(C)c1ccc(CNC(=O)C2CCc3c(O)ccc(O)c3C2)cc1 (stereo not shown) noted as 23.58

Lab book: Growth (% rel. to DMSO) of CCC(=O)Nc1ccccc1Oc1ccc(Cl)cc1 noted as 18.21

Lab book: Growth (% rel. to DMSO) of O=C(NCc1ccc(-c2ccccc2)cc1)C1CCc2c(O)ccc(O)c2C1 (stereo not shown) noted as 15.00
